The origin of these recorded values is patent US20230265098A1.

- TARGET_UNDER_TEST: Ba/F3 ERBB2-P780_Y781insGSP (Homo sapiens, UniProt P04626, DUP778-780, cells depend on it)
- Construct: Ba/F3 cell lines were engineered to express human ERBB2 or EGFR kinases, rendering the cells IL-3 independent
- Sequence (P04626 with tags, fused parts or gaps DUP778-780): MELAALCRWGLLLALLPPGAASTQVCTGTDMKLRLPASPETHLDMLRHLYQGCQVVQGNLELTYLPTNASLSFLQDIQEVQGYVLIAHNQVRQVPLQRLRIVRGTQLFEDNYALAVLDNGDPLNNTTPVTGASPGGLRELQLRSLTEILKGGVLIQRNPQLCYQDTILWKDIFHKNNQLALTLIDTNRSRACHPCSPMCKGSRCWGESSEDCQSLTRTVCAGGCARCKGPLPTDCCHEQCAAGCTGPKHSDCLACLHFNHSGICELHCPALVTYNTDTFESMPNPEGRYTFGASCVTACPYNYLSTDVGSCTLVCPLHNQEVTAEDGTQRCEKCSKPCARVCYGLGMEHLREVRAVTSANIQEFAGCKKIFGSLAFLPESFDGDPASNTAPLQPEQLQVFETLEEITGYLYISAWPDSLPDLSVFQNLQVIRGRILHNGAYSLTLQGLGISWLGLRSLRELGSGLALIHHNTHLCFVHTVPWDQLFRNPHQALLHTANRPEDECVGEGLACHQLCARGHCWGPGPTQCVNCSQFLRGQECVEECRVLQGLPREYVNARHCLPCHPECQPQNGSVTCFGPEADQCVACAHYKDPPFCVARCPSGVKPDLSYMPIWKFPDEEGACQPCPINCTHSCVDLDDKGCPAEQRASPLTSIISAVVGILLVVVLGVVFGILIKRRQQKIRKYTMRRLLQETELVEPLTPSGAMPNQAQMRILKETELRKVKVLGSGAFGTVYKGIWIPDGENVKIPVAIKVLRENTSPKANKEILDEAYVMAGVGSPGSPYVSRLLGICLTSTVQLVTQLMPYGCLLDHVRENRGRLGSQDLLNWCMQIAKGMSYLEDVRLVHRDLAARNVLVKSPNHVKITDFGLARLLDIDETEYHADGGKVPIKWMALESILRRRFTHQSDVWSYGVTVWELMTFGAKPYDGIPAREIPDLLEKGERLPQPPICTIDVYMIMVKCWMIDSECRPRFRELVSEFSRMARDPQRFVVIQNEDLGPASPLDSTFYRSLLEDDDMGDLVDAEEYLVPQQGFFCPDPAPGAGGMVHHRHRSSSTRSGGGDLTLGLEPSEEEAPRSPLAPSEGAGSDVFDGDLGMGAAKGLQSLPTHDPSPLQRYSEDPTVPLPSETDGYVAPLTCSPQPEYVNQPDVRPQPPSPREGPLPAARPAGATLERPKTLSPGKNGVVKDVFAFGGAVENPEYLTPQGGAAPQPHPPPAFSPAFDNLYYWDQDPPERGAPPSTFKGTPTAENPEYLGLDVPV
- ASSAY_COMMENT: Cell viability assay (CellTiter Glo)
- Assay type: cell-based, mouse
- EXPERIMENTAL_PARAMETERS: 72 hours; 3000 cells per well, 96-well plates; read-out: Cell viability IC50, nM, Ba/F3 ERBB2-P780_Y781insGSP
Rule: GI50 below 7 nM gives Criterion met. Equal to or above 7 nM gives Criterion not met.

Worked examples follow.
# COMPOUND, TARGET_UNDER_TEST, CLASS_ASSIGNMENT
measured = [
    ("CC#CC(=O)N(C)c1ccc2ncnc(Nc3ccc(Oc4ccn5ncnc5c4)cc3)c2c1", "Ba/F3 ERBB2-P780_Y781insGSP (Homo sapiens, UniProt P04626, DUP778-780, cells depend on it)", "Criterion not met"),
    ("CC#CC(=O)Nc1ccc2ncnc(Nc3ccc(Oc4ccn5ncnc5c4)c(C)c3)c2c1", "Ba/F3 ERBB2-P780_Y781insGSP (Homo sapiens, UniProt P04626, DUP778-780, cells depend on it)", "Criterion met"),
    ("CC#CC(=O)Nc1cc2c(Nc3ccc(Oc4ccn5ncnc5c4)c(C)c3)ncnc2cc1OCCN(C)C", "Ba/F3 ERBB2-P780_Y781insGSP (Homo sapiens, UniProt P04626, DUP778-780, cells depend on it)", "Criterion met"),
    ("Cc1cc(Nc2ncnc3ccc(NC4=NC(C)(C)CO4)cc23)ccc1Oc1ccn2ncnc2c1 [Tucatinib, tucatinib, reference compound]", "Ba/F3 ERBB2-P780_Y781insGSP (Homo sapiens, UniProt P04626, DUP778-780, cells depend on it)", "Criterion not met"),
]

Next compound, please.
input: Given the entry CC#CC(=O)Nc1ccc2ncnc(Nc3ccc(Oc4ccc(C)nc4)c(C)c3)c2c1 , would its reported GI50 be below 7 nM?
output: Criterion met

----------
- TARGET_UNDER_TEST: Ba/F3 ERBB2 A775_G776insYVMA (Homo sapiens, UniProt P04626, DUP772-775, cells depend on it)
- Construct: Ba/F3 cell lines were engineered to express human ERBB2 or EGFR kinases, rendering the cells IL-3 independent
- Sequence (P04626 with tags, fused parts or gaps DUP772-775): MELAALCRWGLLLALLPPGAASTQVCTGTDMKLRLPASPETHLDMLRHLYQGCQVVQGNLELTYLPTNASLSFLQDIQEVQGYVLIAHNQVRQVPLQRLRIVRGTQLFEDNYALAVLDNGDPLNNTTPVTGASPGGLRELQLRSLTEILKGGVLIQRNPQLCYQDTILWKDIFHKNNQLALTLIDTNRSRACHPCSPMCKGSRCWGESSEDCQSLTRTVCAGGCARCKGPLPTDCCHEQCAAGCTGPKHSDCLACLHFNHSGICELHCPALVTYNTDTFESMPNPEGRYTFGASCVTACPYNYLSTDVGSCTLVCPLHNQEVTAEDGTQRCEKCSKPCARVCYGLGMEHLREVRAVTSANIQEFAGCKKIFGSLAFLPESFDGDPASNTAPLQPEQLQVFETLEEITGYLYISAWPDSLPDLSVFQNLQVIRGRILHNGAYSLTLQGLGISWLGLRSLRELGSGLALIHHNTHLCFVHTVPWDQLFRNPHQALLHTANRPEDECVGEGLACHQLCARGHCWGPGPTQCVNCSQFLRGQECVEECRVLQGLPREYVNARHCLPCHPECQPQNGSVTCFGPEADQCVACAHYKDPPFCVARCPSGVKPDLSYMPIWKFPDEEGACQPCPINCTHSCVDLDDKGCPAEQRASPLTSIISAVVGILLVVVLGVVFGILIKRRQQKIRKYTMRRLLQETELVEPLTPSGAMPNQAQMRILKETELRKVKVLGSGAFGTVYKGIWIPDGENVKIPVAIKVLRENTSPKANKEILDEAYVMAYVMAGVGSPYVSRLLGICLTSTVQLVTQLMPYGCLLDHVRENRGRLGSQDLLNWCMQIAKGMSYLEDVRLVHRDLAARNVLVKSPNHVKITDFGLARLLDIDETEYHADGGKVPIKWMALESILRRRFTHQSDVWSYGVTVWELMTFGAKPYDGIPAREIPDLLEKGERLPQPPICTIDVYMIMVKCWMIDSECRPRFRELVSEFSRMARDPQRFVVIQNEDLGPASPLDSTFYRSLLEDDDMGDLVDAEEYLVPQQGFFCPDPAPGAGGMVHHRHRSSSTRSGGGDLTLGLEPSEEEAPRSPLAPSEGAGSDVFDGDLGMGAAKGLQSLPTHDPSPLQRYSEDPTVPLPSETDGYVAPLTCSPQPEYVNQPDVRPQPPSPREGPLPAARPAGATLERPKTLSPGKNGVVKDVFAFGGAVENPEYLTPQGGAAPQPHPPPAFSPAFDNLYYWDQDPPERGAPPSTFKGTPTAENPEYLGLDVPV
- ASSAY_COMMENT: Cell viability assay (CellTiter Glo)
- Format: cell-based, mouse
- EXPERIMENTAL_PARAMETERS: 72 hours; 300 cells per well, 384-well plates (Table B5); read-out: Cell Line: Ba/F3 ERBB2 A775 G776ins YVMA IC50
REPORTED_PROPERTY: GI50
Answer as a quantity: numeral, then unit.

Some molecules with recorded GI50:
# MOLECULAR_STRING, REPORTED_PROPERTY, RESULT
measured = [
    ("CC#CC(=O)Nc1ccc2ncnc(Nc3ccc(Oc4ccc5nccnc5c4)c(C)c3)c2c1", "GI50", "3.2 nM"),
    ("CC#CC(=O)Nc1cc2c(Nc3ccc(Cc4ccn5ncnc5c4)c(C)c3)ncnc2cc1OCCCN(C)C", "GI50", "2.47 nM"),
    ("Cc1cc(Nc2ncnc3cc(OCCN(C)C)c(NC(=O)C#CC(C)(C)C)cc23)ccc1Oc1ccn2ncnc2c1", "GI50", "177 nM"),
]

Now take the following molecule into account.
input: Give the reported value of GI50 for this record: CC#CC(=O)Nc1cc2c(Nc3ccc(Oc4cnn(C)c(=O)c4)c(C)c3)ncnc2cc1OCCN(C)C
output: 346 nM
